These measurements were taken from patent US20250250357A1.

target entity: T1, human MSLN protein endogenously expressed on OVCAR3 tumor cells (human, UniProt Q13421 296-598)
T1 construct: whole, on cells; endogenous expression on a tumor cell line; also called human mesothelin
T1 sequence (Q13421 other isoform, or with tags, fused parts or gaps): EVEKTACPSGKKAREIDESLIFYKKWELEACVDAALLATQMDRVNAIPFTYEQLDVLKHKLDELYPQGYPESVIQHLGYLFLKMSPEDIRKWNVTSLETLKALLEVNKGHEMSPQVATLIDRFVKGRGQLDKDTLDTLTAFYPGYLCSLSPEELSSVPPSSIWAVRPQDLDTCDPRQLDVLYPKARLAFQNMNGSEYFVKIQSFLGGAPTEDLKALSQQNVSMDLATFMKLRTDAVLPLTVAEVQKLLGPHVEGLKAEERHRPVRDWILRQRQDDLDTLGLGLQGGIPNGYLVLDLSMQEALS
procedure text: FACS on OVCAR3 cells;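 further: flow cytometry of chimeric antibody binding to OVCAR3 cells, 2 h on ice, read as cellular mean fluorescence intensity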
Simple rule here: Maximum mean fluorescence intensity less than 5000 is Yes, otherwise No.

S009-F8-18.9 (antibody, human IgG1, kappa, V domains shown, human-murine chimeric antibody, human IgG1/kappa constant regions) VH: EFQLQQSGPELVKPGASVKISCKASGYSFTDYNMNWVKQSNGKSLEWIGIINPNYGTTSYNQKFKGRATLTVDQSSSTAYVQLNSLTSEDSAVYYCARGGYDNEAMDYWGQGTSVTVSS VL: QIVLTQSPAIMSASPGEKVTMTCSASSSVSYMHWYQQKSGTSPKRWIYDTSKLASGVPARFSGSGSGTSYSLTISSMEAEDAATYYCQQWSSNPPTFGAGTKLELKR: No
S009-F8-15.19 (antibody, human IgG1, kappa, V domains shown, human-murine chimeric antibody, human IgG1/kappa constant regions) VH: EFQLQQSGPELVKPGASVKISCKASGYSFTDYNMNWVKQSNGKSLEWIGIINPYYGTTSNNQNFKGKATLTVDQSSSTAYMQLNSLTSDDSAVYYCARWLRRDAMDYWGQGTSVTVSS VL: DIVMTPSHKFMSTSVGDRVSIACKASQDVGSSVAWYQQKPGQSPKLLIYWTSTRHTGVPDRFTGSGSGTDFTLTISNVQSEDLADYFCQQYSSYPWTFGGGTKLEIKR: No
S009-F8-33.12 (antibody, human IgG1, kappa, V domains shown, human-murine chimeric antibody, human IgG1/kappa constant regions) VH: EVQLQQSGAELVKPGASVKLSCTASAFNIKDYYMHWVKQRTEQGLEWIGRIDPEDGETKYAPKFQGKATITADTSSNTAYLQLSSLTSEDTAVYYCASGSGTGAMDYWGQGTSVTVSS VL: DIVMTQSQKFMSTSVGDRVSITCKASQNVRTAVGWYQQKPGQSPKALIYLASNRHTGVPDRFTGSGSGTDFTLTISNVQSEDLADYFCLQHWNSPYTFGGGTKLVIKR: Yes

[Q] Bench note: check whether S009-F8-28.23 (antibody, human IgG1, kappa, V domains shown, human-murine chimeric antibody, human IgG1/kappa constant regions) VH: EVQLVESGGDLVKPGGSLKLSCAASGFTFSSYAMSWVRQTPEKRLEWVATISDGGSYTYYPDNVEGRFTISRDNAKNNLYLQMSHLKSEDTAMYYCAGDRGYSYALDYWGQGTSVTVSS VL: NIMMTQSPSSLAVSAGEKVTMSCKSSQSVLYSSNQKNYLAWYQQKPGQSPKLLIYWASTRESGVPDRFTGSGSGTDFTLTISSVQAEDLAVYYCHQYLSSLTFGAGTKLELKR shows Maximum mean fluorescence intensity below 5000
[A] Yes

[Q] Does this binder meet the criterion Maximum mean fluorescence intensity < 5000? S009-F8-12.13 (antibody, human IgG1, kappa, V domains shown, human-murine chimeric antibody, human IgG1/kappa constant regions) VH: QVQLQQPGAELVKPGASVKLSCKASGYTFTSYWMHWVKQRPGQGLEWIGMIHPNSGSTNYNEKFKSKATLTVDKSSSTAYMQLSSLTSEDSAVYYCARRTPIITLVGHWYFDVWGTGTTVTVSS VL: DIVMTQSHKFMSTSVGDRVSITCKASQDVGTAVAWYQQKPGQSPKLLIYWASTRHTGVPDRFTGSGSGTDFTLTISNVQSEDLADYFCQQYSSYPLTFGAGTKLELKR
[A] No

[Q] In plain terms, does S009-F8-24.14 (antibody, human IgG1, kappa, V domains shown, human-murine chimeric antibody, human IgG1/kappa constant regions) VH: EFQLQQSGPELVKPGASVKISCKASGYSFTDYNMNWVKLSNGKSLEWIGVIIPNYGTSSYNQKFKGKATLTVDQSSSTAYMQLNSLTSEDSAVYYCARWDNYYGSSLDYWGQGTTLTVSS VL: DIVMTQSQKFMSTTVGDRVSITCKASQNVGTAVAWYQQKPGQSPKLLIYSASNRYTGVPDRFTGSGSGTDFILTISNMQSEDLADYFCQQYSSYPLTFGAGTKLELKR come in under 5000 for Maximum mean fluorescence intensity?
[A] Yes
